# tgt: recombinant human calmodulin (human, UniProt P0DP23 1-149)
# methodNotes: ITC
reportedMetric: Kd
Quote the value and follow it with the unit of measurement.

Ask | // returns reported Kd for input Ac-EDLSSSYYRDYVKKILKKKK-NH2 [CaMBP0 peptide of zebrafish STRA6]
Reply | 2560 nM
